# MEASURED ON: T1, APC1015-AA
# T1 chain: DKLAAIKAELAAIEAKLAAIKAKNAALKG
# ASSAY NOTES: two-hybrid library CCmax;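 also: natural log of median RNA to DNA barcode read ratio; higher means stronger binding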
# EXPERIMENTAL SETUP: mean of both orientations
ENDPOINT: interaction score

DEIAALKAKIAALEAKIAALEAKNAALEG [4H807-AA] ... -0.714
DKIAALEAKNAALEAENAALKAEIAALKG [4H2458-AA] ... -1.95
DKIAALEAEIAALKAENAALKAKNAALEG [4H2143-AA] ... -1.78
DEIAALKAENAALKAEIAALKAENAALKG [4H716-AA] ... -1.65
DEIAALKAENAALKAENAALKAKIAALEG [4H733-AA] ... -1.46

[1] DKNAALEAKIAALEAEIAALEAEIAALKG [4H3330-AA]
[2] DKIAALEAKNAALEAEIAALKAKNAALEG [4H2447-AA]
[3] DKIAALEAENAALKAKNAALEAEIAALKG [4H2290-AA]
[4] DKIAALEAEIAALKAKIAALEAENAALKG [4H2148-AA]
With regard to interaction score, arrange the entries in ascending order, please. Answer format: the labels, ordered as requested.
2, 3, 1, 4
